molecules and their reported IC50
Assay: Inhibitory activity against gastrin receptor

{"molecule": "CN1C(=O)[C@H](NC(=O)Nc2cccc(CC(=O)NCCSCc3csc(N=C(N)N)n3)c2)N=C(c2ccccc2)c2ccccc21", "IC50 [nM]": 168}
{"molecule": "Cc1cccc(NC(=O)NC2N=C(c3cccc(OCC(=O)NCCC(=O)NCCCOc4cccc(CN5CCCCC5)c4)c3)c3ccccc3N(C)C2=O)c1 (centres undefined)", "IC50 [nM]": 200}
{"molecule": "CN1C(=O)[C@H](NC(=O)Nc2cccc(CC(=O)NCCC(=O)NCCCOc3cccc(CN4CCCCC4)c3)c2)N=C(c2ccccc2)c2ccccc21", "IC50 [nM]": 136}
{"molecule": "Cc1cccc(NC(=O)NC2N=C(c3ccccc3)c3ccccc3N(CC(=O)NCCCC(=O)NCCCOc3cccc(CN4CCCCC4)c3)C2=O)c1 (centres undefined)", "IC50 [nM]": 210}
{"molecule": "CN1C(=O)[C@H](NC(=O)Nc2cccc(C(=O)NCCCOc3cccc(CN4CCCCC4)c3)c2)N=C(c2ccccc2)c2ccccc21", "IC50 [nM]": 550}
{"molecule": "CN1C(=O)[C@H](NC(=O)Nc2cccc(CC(=O)NCCCC(=O)NCCCOc3cccc(CN4CCCCC4)c3)c2)N=C(c2ccccc2)c2ccccc21", "IC50 [nM]": 115}
{"molecule": "Cc1cccc(NC(=O)NC2N=C(c3cccc(OCC(=O)NCCC(=O)NCCSCc4csc(N=C(N)N)n4)c3)c3ccccc3N(C)C2=O)c1 (centres undefined)", "IC50 [nM]": 25}
{"molecule": "Cc1cccc(NC(=O)NC2N=C(c3ccccc3)c3ccccc3N(CC(=O)NCC(=O)NCCSCc3csc(N=C(N)N)n3)C2=O)c1 (centres undefined)", "IC50 [nM]": 370}
{"molecule": "CN1C(=O)[C@H](NC(=O)Nc2cccc(CC(=O)NCCCOc3cccc(CN4CCCCC4)c3)c2)N=C(c2ccccc2)c2ccccc21", "IC50 [nM]": 230}
{"molecule": "Cc1cccc(NC(=O)NC2N=C(c3ccccc3)c3ccccc3N(CC(=O)NCCCOc3cccc(CN4CCCCC4)c3)C2=O)c1 (centres undefined)", "IC50 [nM]": 155}
{"molecule": "Cc1cccc(NC(=O)NC2N=C(c3ccccc3)c3ccccc3N(CC(=O)NCCCCCC(=O)NCCCOc3cccc(CN4CCCCC4)c3)C2=O)c1 (centres undefined)", "IC50 [nM]": 16}
{"molecule": "Cc1cccc(NC(=O)NC2N=C(c3ccccc3)c3ccccc3N(CC(=O)NCCCC(=O)NCCSCc3csc(N=C(N)N)n3)C2=O)c1 (centres undefined)", "IC50 [nM]": 190}
{"molecule": "Cc1cccc(NC(=O)NC2N=C(c3cccc(OCC(=O)NCCCOc4cccc(CN5CCCCC5)c4)c3)c3ccccc3N(C)C2=O)c1 (centres undefined)", "IC50 [nM]": 570}
{"molecule": "Cc1cccc(NC(=O)NC2N=C(c3ccccc3)c3ccccc3N(CC(=O)NCCSCc3csc(N=C(N)N)n3)C2=O)c1 (centres undefined)", "IC50 [nM]": 3}
